The origin of these recorded values is PubChem BioAssay AID1259407.

System: CCRIS mutagenicity, Ames/micronucleus/aberration tests
Assay: CCRIS mutagenicity studies
Details: Test System: AMES SALMONELLA TYPHIMURIUM; Strain/Indicator: TA1537; Metabolic Activation: NONE; Method: PREINCUBATION
Active and inactive are the calls of the source. The rule behind the calls is not given here.
Give your call using only these classes: yes = active, no = inactive

{"compound": "CCCCC(CC)COC(=O)C(C#N)=C(c1ccccc1)c1ccccc1 (stereo not drawn)", "cat": "no"}
{"compound": "Cc1ccc(S(=O)(=O)Oc2ccc(N=Nc3ccc(-c4ccc(N=Nc5c(O)ccc6cc(S(=O)(=O)O)cc(S(=O)(=O)O)c56)c(C)c4)cc3C)cc2)cc1", "cat": "no"}
{"compound": "O=C1c2ccccc2C(=O)c2c(O)cc(O)cc21", "cat": "yes"}
{"compound": "C=C[Si](OCC)(OCC)OCC", "cat": "no"}
{"compound": "FC(F)(F)C(Cl)Br (stereo not drawn)", "cat": "no"}
{"compound": "Nc1n[nH]c(N)n1", "cat": "no"}

Input line: What outcome does the record of this test show for "CCCCCCCCn1sccc1=O" ?
Output line: no

Input line: What outcome does the record of this test show for "c1ccc(-c2ccccc2)cc1" ?
Output line: no

Input line: What outcome does the record of this test show for "CCCCOC(=O)c1ccccc1N" ?
Output line: no

Input line: What outcome does the record of this test show for CCC(CO)[N+](=O)[O-] (stereo not drawn) ?
Output line: no

Input line: What outcome does the record of this test show for "COc1ccc(CN(CCN(C)C)c2ncccn2)cc1" ?
Output line: no

Input line: What outcome does the record of this test show for "CC(=O)OCCC(C)C" ?
Output line: no

Input line: What outcome does the record of this test show for "CN1C(=O)CN=C(c2ccccc2)c2cc(Cl)ccc21" ?
Output line: no

---

System: CCRIS mutagenicity, Ames/micronucleus/aberration tests
Test: CCRIS mutagenicity studies
Conditions: Test System: AMES SALMONELLA TYPHIMURIUM; Strain/Indicator: TA1538; Metabolic Activation: NONE; Method: PREINCUBATION
Description: The CCRIS database contains chemical records with carcinogenicity, mutagenicity, tumor promotion, and tumor inhibition test results. It was developed by the National Cancer Institute (NCI). Data are derived from studies cited in primary journals, current awareness tools, NCI reports, and other sources. Test results have been reviewed by experts in carcinogenesis and mutagenesis. CCRIS provides historical information from the years 1985 - 2011. It is no longer updated. […]
Calls of active or inactive are those of the source. How the calls were made is not given here.
Give your call using only these classes: active, inactive

Reference set, count: 5
{"molecule": "CC(C)=CCC1=C(O)c2ccccc2C(=O)C1=O", "cat": "inactive"}
{"molecule": "CC(C)(C)C(=O)C(Oc1ccc(Cl)cc1)n1ccnc1 (stereo not drawn)", "cat": "inactive"}
{"molecule": "C=CC=O", "cat": "inactive"}
{"molecule": "NC1=CC(=O)C(=O)c2ccccc21", "cat": "inactive"}
{"molecule": "O=C1NCNC(=O)N1", "cat": "inactive"}

Input line: What outcome does the record of this test show for "O=Cc1ccccc1[N+](=O)[O-]" ?
Output line: inactive

Input line: What outcome does the record of this test show for "COS(=O)(=O)OC" ?
Output line: active

Input line: What outcome does the record of this test show for "C=C[Si](OCC)(OCC)OCC" ?
Output line: inactive
